tested target: Mitogen-activated protein kinase 9 (Homo sapiens) (UniProt P45984)
Sequence (P45984 whole entry, looked up): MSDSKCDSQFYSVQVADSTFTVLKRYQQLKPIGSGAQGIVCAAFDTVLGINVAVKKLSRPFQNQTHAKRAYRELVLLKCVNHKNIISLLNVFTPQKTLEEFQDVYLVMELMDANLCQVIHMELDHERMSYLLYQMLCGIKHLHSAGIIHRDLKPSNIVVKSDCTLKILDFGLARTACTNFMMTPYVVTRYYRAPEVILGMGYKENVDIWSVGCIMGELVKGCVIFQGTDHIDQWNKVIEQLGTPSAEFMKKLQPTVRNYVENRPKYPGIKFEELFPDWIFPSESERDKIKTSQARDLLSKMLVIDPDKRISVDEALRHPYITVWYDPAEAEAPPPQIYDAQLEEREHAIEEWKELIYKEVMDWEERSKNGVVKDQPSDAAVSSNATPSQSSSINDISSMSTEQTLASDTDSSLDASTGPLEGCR
condition notes: at 10 µM
Description: Millipore: Percentage of residual kinase activity of MAPK9 at 10uM relative to control. Control inhibitor: Jnk Inhibitor II at 100.0uM. Buffer: 50 mM Tris pH 7.5, 0.1 mM EGTA, 0.1% ?-mercaptoethanol
Measured residual activity, listed per entry for reference.
Could you give me the number in %? Just the number is fine.

Take a look at these entries with their results.
O=[N+]([O-])/C=C/c1ccc2c(c1)OCO2; 103
O=c1[nH]c2ccccc2n1C1CCN(Cc2ccc(-c3nc4cc5[nH]cnc5cc4nc3-c3ccccc3)cc2)CC1; 101
COc1ccc2c(c1)/C(=C/c1cnc[nH]1)C(=O)N2; 47
CC(C)(C)c1cc(C=C(C#N)C#N)cc(Br)c1O; 114
CC(C)[C@H](CO)Nc1nc(Nc2cccc(Cl)c2)c2ncn(C(C)C)c2n1; 97

### Prompt Tell me measured residual activity for "COC(=O)[C@@]1(O)C[C@H]2O[C@]1(C)n1c3ccccc3c3c4c(c5c6ccccc6n2c5c31)C(=O)NC4" please.
### Response -11

### Prompt Tell me measured residual activity for "O=C1c2ccccc2-c2nc3nnnn3nc21" please.
### Response 83

### Prompt Tell me measured residual activity for "COc1cc(OC)c(/C=C2\C(=O)Nc3ccccc32)c(OC)c1" please.
### Response 88

====

tested target: Dual specificity mitogen-activated protein kinase kinase 7 (Homo sapiens)
Sequence (whole entry): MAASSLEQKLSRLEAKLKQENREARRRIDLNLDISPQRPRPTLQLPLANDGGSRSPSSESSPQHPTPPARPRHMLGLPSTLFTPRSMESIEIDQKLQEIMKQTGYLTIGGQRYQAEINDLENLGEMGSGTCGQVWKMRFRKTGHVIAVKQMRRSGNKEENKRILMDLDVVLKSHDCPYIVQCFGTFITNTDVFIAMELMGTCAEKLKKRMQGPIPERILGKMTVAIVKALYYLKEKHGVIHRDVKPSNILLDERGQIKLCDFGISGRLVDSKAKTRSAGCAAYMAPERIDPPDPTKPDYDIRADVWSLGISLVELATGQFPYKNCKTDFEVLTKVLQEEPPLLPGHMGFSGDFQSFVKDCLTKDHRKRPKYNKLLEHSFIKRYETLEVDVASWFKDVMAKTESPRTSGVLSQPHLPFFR
condition notes: at 10 µM
Measured residual activity, listed per entry for reference.
Could you give me the number in %? Just the number is fine.

COc1ccc2c(c[n+](C)c3c4cc5c(cc4ccc23)OCO5)c1OC; 71

Turning now to a further record.
### Prompt Tell me measured residual activity for "CCn1cnc2c(Nc3cccc(Cl)c3)nc(N[C@@H]3CCCC[C@@H]3N)nc21" please.
### Response 91

====

tested target: Interleukin-1 receptor-associated kinase 1 (Homo sapiens)
condition notes: at 1 µM
Measured residual activity, listed per entry for reference.
Could you give me the number in %? Just the number is fine.

O=c1[nH]c2ccccc2n1C1CCN(Cc2ccc(-c3nc4cc5[nH]cnc5cc4nc3-c3ccccc3)cc2)CC1; 103
CC(C)[C@H](CO)Nc1nc(Nc2cccc(Cl)c2)c2ncn(C(C)C)c2n1; 81
COC(=O)[C@@]1(O)C[C@H]2O[C@]1(C)n1c3ccccc3c3c4c(c5c6ccccc6n2c5c31)C(=O)NC4; 1
O=C1c2ccccc2-c2nc3nnnn3nc21; 109

### Prompt Tell me measured residual activity for "c1cc(-c2cnn3cc(-c4ccc(OCCN5CCCCC5)cc4)cnc23)ccn1" please.
### Response 23

### Prompt Tell me measured residual activity for "O=C1Nc2ccc3ncsc3c2/C1=C/c1c[nH]cn1" please.
### Response 28

### Prompt Tell me measured residual activity for "COc1cc(OC)c(/C=C2\C(=O)Nc3ccccc32)c(OC)c1" please.
### Response 100

### Prompt Tell me measured residual activity for "CCn1cnc2c(Nc3cccc(Cl)c3)nc(N[C@@H]3CCCC[C@@H]3N)nc21" please.
### Response 85

### Prompt Tell me measured residual activity for C[S+]([O-])c1ccc(-c2nc(-c3ccc(F)cc3)c(-c3ccncc3)[nH]2)cc1 (centres undefined) please.
### Response 108
